// pIC50 lookup, one value per entry
Target: L1196M mutant ALK kinase (Homo sapiens, UniProt Q9UM73, L1196M)
Sequence (Q9UM73 19-1620 L1196M): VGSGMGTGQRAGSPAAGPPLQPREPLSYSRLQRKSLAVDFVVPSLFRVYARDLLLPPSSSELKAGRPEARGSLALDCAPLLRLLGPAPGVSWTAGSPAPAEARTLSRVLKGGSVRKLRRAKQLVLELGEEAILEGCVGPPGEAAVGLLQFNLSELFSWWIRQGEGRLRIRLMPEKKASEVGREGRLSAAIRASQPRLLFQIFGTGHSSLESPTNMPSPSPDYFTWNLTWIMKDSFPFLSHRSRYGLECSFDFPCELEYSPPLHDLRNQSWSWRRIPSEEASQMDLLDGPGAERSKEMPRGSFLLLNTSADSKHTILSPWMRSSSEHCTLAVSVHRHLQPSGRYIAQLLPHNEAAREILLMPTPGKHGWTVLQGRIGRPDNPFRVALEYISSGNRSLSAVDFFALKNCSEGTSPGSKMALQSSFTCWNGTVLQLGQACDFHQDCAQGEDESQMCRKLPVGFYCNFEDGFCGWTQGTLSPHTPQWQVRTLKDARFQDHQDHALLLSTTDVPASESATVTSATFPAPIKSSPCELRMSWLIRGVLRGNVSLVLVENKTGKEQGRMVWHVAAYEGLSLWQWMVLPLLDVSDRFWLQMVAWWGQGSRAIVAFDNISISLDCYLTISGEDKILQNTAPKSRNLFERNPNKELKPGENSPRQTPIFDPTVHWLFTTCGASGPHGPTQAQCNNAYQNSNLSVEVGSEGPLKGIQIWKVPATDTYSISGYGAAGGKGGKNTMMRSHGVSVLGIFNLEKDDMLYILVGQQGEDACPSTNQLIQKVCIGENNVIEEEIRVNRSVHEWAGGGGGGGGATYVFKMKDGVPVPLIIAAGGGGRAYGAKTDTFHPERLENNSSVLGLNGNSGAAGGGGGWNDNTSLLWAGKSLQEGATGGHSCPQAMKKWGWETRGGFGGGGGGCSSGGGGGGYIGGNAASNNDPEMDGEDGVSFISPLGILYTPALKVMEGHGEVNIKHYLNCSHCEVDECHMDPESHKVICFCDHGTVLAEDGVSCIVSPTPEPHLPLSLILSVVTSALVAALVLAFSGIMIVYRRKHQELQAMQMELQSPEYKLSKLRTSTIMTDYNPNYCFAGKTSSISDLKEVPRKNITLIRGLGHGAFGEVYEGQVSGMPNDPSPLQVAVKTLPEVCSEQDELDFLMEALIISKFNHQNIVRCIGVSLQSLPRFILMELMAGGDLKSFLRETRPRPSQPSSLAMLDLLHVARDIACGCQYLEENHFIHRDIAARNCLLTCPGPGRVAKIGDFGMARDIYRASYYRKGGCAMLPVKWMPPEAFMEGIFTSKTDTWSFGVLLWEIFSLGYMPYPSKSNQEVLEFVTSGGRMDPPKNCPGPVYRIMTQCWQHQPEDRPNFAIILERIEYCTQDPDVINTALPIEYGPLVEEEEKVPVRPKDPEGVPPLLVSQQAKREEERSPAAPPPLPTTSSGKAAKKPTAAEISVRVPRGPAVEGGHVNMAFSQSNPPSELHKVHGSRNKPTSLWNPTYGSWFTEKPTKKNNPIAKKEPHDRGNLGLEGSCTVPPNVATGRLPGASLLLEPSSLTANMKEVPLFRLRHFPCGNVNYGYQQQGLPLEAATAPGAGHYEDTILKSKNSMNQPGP
Assay: HTRF KinEASE-TK assay, inhibitory activity on L1196M mutant ALK kinase
Conditions: L1196M mutant ALK 1 ng/μl, substrate 1 μM, ATP 5 μM, 30° C. 35 minutes, read-out: Inhibition on ALK kinases (L1196M mutant), IC50
pIC50: −log10 of the molar value.
QUANTITY: pIC50

> print(dat)
                                    molecule                         system.under.test  observed.value
 1  CC(C)Oc1cc(C2CCNCC2)ccc1Nc1ncc(Cl)c(Nc2cn(C)nc2S(=O)(=O)C(C)C)n1  L1196M mutant ALK kinase (Homo sapiens, UniProt Q9UM73, L1196M)            8.10
 2  CCNC(=O)N1CCC(c2cc(OC3CC3)c(Nc3ncc(Cl)c(Nc4cn(C)nc4S(=O)(=O)C(C)C)n3)cc2C)CC1  L1196M mutant ALK kinase (Homo sapiens, UniProt Q9UM73, L1196M)            8.22
 3  COC1CN(C)CCC1c1cc(OC2CC2)c(Nc2ncc(Cl)c(Nc3cn(C)nc3S(=O)(=O)C(C)C)n2)cc1C (stereo not drawn)  L1196M mutant ALK kinase (Homo sapiens, UniProt Q9UM73, L1196M)            8.22
 4  Cc1cc(Nc2ncc(Cl)c(Nc3cn(C4CC4)nc3S(=O)(=O)C(C)C)n2)c(OC2CC2)cc1C1CCNCC1  L1196M mutant ALK kinase (Homo sapiens, UniProt Q9UM73, L1196M)            8.22
 5  CC(C)S(=O)(=O)c1nn(C)cc1Nc1nc(Nc2ccc(C3=CCNCC3)cc2OC2CC2)ncc1Cl  L1196M mutant ALK kinase (Homo sapiens, UniProt Q9UM73, L1196M)            8.22
 6  CC(C)S(=O)(=O)c1nn(C)cc1Nc1nc(Nc2cc(F)c(C3CCNC3)cc2OC2CC2)ncc1Cl (stereo not drawn)  L1196M mutant ALK kinase (Homo sapiens, UniProt Q9UM73, L1196M)            7.47
 7  CC(C)CS(=O)(=O)c1nn(C)cc1Nc1nc(Nc2ccc(C3CCNCC3)cc2OC2CC2)ncc1Cl  L1196M mutant ALK kinase (Homo sapiens, UniProt Q9UM73, L1196M)            7.89
 8  CC(C)S(=O)(=O)c1nn(C)cc1Nc1nc(Nc2cc(F)c(C3CCN(C)CC3)cc2OC2CC2)ncc1Cl  L1196M mutant ALK kinase (Homo sapiens, UniProt Q9UM73, L1196M)            8.40
 9  Cc1cc(Nc2ncc(Cl)c(Nc3cn(C)nc3S(=O)(=O)C(C)C)n2)c(OC2CC2)cc1[C@H]1CC[C@H](NC2CC2)CC1  L1196M mutant ALK kinase (Homo sapiens, UniProt Q9UM73, L1196M)            7.74
10  Cc1cc(Nc2ncc(Cl)c(Nc3cn(C)nc3S(=O)(=O)C(C)C)n2)c(OC2CC2)cc1C1CCN(C(=O)CC#N)CC1  L1196M mutant ALK kinase (Homo sapiens, UniProt Q9UM73, L1196M)            8.22
11  Cc1cc(Nc2ncc(Cl)c(Nc3cn(C)nc3S(=O)(=O)CC(C)C)n2)c(OC(C)C)cc1C1CCNCC1  L1196M mutant ALK kinase (Homo sapiens, UniProt Q9UM73, L1196M)            8.15
12  Cc1cc(Nc2ncc(Cl)c(Nc3cn(C)nc3S(=O)(=O)CC(C)C)n2)c(OC2CC2)cc1C1CCN(C)CC1  L1196M mutant ALK kinase (Homo sapiens, UniProt Q9UM73, L1196M)            7.96
13  Cc1cc(Nc2ncc(Cl)c(Nc3cn(C)nc3S(=O)(=O)CC(C)C)n2)c(OC(C)C)cc1C1CN(S(C)(=O)=O)C1  L1196M mutant ALK kinase (Homo sapiens, UniProt Q9UM73, L1196M)            7.37
14  Cc1cc(Nc2ncc(Cl)c(Nc3cn(C)nc3S(=O)(=O)C(C)C)n2)c(OC(C)C)cc1C1CCN(C)C1 (stereo not drawn)  L1196M mutant ALK kinase (Homo sapiens, UniProt Q9UM73, L1196M)            8.40
15  Cc1cc(Nc2ncc(Cl)c(Nc3cn(C)nc3S(=O)(=O)CC(C)C)n2)c(OC2CC2)cc1C1CCN(C(C)C)CC1  L1196M mutant ALK kinase (Homo sapiens, UniProt Q9UM73, L1196M)            7.92
16  Cc1cc(Nc2ncc(Cl)c(Nc3cn(C)nc3S(=O)(=O)C(C)C)n2)c(OC2CC2)cc1[C@H]1CC[C@@H](N(C)C)CC1  L1196M mutant ALK kinase (Homo sapiens, UniProt Q9UM73, L1196M)            8.15
17  Cc1cc(Nc2ncc(C#N)c(Nc3cn(C)nc3S(=O)(=O)C(C)C)n2)c(OC2CC2)cc1C1CCN(C)CC1  L1196M mutant ALK kinase (Homo sapiens, UniProt Q9UM73, L1196M)            8.40
18  Cc1cc(Nc2ncc(Cl)c(Nc3cn(C)nc3S(=O)(=O)C(C)C)n2)c(OC2CC2)cc1C1CCNC1 (stereo not drawn)  L1196M mutant ALK kinase (Homo sapiens, UniProt Q9UM73, L1196M)            8.22
19  Cc1cc(Nc2ncc(Cl)c(Nc3cn(C)nc3S(=O)(=O)C3CCC3)n2)c(OC2CC2)cc1C1CCN(C)CC1  L1196M mutant ALK kinase (Homo sapiens, UniProt Q9UM73, L1196M)            7.82
20  Cc1cc(Nc2ncc(Cl)c(Nc3cn(C)nc3S(=O)(=O)C(C)C)n2)c(OC2CC2)cc1C1CCNCC1  L1196M mutant ALK kinase (Homo sapiens, UniProt Q9UM73, L1196M)            8.40
21  Cc1cc(Nc2ncc(Cl)c(Nc3cn(C)nc3S(=O)(=O)C(C)C)n2)c(OC(C)C)cc1C1CCN(C(C)C)CC1  L1196M mutant ALK kinase (Homo sapiens, UniProt Q9UM73, L1196M)            7.92

Just for reference, patent US10023593B2 is where these values come from.
